tested on: Fibroblast; assay: Multiplex assay against human fibroblast; type: toxicity, cell-based; conditions: 24 h, 1 µM, compound concentration 1 uM, replicate 2
Below, each entry is listed alongside its reported Population Apoptotic (%).
Give the quantity in %, number only.

Use the examples below as a reference point.
[
  {
    "MOLECULE": "C=CC(=O)Nc1cccc(Oc2nc(Nc3ccc(N4CCN(C)CC4)cc3OC)ncc2Cl)c1",
    "VALUE UNIT": "%",
    "Population Apoptotic (%)": 66
  },
  {
    "MOLECULE": "CCc1nn(CCCN2CCN(c3cccc(Cl)c3)CC2)c(=O)n1CCOc1ccccc1.Cl [NEFAZODONE HYDROCHLORIDE]",
    "VALUE UNIT": "%",
    "Population Apoptotic (%)": 50
  },
  {
    "MOLECULE": "COC(=O)C1=C(C)NC(C)=C(C(=O)OCCCN2CCC(c3ccccc3)(c3ccccc3)CC2)[C@H]1c1cccc([N+](=O)[O-])c1",
    "VALUE UNIT": "%",
    "Population Apoptotic (%)": 77
  }
]

We next turn to a different molecule, shown below.
Request: Need Population Apoptotic (%) of CC(C)CC(=O)Nc1[nH]nc2c1CN(C(=O)C1CCN(C)CC1)C2(C)C , thanks.
Response: 66
